# tested.on: T1, human TREM2 (human, UniProt Q9NZC2 19-174, limits assumed)
# T1 sequence: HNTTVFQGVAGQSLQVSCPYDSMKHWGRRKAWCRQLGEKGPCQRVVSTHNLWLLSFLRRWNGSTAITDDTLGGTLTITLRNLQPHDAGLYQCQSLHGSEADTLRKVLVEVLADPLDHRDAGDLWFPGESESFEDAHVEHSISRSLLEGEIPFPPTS
# assay.overview: yeast-displayed Fab FACS, 2nd screen 10 nM
Recorded measurements of binding signal fold over 6E7 parental, one per entry
Use fold as the unit, but write only the number.

Some entries whose results are on file:
V25 (Fab, V domains shown) VH: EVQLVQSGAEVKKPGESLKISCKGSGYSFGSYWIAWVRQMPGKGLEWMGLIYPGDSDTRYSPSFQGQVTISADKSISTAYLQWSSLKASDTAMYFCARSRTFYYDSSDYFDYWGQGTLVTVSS VL: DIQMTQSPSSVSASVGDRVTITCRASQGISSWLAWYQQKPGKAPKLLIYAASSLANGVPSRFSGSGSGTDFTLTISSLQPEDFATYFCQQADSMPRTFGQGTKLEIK | 4.7
V14 (Fab, V domains shown) VH: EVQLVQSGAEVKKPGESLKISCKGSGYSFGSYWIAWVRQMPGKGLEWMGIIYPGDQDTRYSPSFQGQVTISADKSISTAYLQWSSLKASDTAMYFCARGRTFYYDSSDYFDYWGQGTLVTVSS VL: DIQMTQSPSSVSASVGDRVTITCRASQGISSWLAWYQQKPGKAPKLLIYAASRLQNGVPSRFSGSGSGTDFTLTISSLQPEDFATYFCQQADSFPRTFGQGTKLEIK | 4.64
V16 (Fab, V domains shown) VH: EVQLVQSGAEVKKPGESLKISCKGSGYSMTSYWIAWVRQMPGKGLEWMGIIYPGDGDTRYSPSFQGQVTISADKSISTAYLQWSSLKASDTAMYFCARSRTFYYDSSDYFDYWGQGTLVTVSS VL: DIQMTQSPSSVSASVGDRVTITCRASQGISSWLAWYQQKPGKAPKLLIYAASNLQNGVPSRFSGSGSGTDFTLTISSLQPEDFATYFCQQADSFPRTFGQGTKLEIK | 4.04

*Q* Return reported binding signal fold over 6E7 parental; argument: V84 (Fab, V domains shown) VH: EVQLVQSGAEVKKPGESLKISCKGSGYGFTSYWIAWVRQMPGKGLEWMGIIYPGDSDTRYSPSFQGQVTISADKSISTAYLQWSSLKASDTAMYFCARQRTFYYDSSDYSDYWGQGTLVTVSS VL: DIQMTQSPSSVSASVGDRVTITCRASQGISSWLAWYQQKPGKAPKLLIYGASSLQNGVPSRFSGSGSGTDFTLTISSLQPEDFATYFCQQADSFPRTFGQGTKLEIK
*A* 1.62

*Q* Consider the binder shown here: V15 (Fab, V domains shown) VH: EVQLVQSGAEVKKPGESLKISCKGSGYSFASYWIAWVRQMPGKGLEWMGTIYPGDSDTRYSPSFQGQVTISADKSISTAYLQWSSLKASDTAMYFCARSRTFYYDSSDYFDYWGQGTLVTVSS VL: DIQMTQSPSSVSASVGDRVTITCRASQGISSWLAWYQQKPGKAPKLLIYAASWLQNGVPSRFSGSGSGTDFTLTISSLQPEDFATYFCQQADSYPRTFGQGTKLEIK What is its recorded binding signal fold over 6E7 parental?
*A* 4.78
